Test system: RPMI-8226 leukemia
experimentNotes: NCI-60 one-dose screen, 48 h (100 = growth as untreated, 0 = no growth, -100 = all killed)
assaySetup: 10 µM unless noted
Protocol: Growth inhibition of the RPMI-8226 human tumor cell line is measured as a screen for anti-cancer activity. Cells are grown in 96 well plates and exposed to the test compound for 48 hours. Compounds are tested at a single concentration, which is 10^-5 M for most compounds. The reported endpoint is percent growth (GI% or GIPRCNT), where numbers from 0 - 100% represent growth inhibition, and numbers from -100% - 0 represent cell death. For example, a value of 40 represents 60% growth inhibition. […]
About 83,000 compounds went through this panel and 20% of them were active in at least one assay; those are over-represented in the sample as a whole.
endpointName: growth (%)

compound	readoutNumber
CCN1C(=S)N(CC)C2C1NN=C1SC(c3ccccc3)=CC(=O)N12 (stereo not given)	107
N#Cc1nc(-c2ccccc2)oc1S(=O)(=O)N1CCN(CCc2ccccn2)CC1	36.1
Cc1cc(=O)oc2cc(OCCCOc3ccc(/C=C/C(=O)Nc4ccc(Cl)cc4)cc3)ccc12	70.7
CSCCC(C(=O)O)N1C(=O)/C(=C/c2ccc(O)c(O)c2)SC1=S (stereo not given)	110
Nc1cc(-c2c[nH]c3ccccc23)nc2cc(-c3c[nH]c4ccccc34)nn12	35.9
C#Cc1nc(C2=C(C)C(=O)/C(=N/OC(C)=O)C2)cs1	32.3
COc1cc(/C=C/C(=O)c2ccc(Cl)cc2)ccc1Oc1nc(NCCO)nc(N2CCOCC2)n1	65.4
Cc1ccc2ccc3ccc(C)nc3c2n1.Cc1ccc2ccc3ccc(C)nc3c2n1.Oc1c(Cl)cc(Cl)c2ccc(CN3CCCCC3)nc12.[Ru]	-46
Cc1ccc(/C=C/c2nn3c(-c4ccco4)nnc3s2)cc1C	109
COc1cc(/C=C/C(=O)c2cc(OC)c(OC)c(OC)c2)ccc1OCc1ccccc1	-12.4
C#Cc1nc(C2=C(C)C(=N\O)/C(=N/O)C2)cs1	72.2
Cn1c(SCC(=O)c2cccs2)nc2ccccc2c1=O	81.7
O=C(CCN1C(=O)/C(=C/c2ccccc2)SC1=S)N1CCOCC1	67.7
CO/N=C1\CCc2c(sc(NC(=O)c3cccc(C(F)(F)F)c3)c2C(N)=O)C1	35.4
CC1=C(C)C(=O)C(Nc2cccc(C(F)(F)F)c2)=C(Cl)C1=O	-3.12
O=C(CCN1C(=O)/C(=C/c2ccccc2F)SC1=S)N1CCOCC1	59.7
CCCC(=O)NC(c1ccc(N(CC)CC)cc1)c1cc(C)c2cccnc2c1O (stereo not given)	22.6
Cn1ccnc1C(=O)/C=C/c1ccc(NC(=O)Nc2ccc(Cl)cc2)cc1	63.2
O=c1/c(=C\c2ccc(-c3ccccc3)o2)sc2nc(-c3ccccc3)nn12	102
O=C1[C@H]2Cc3c([nH]c4ccccc34)[C@@H](c3ccc(Br)cc3)N2C(=O)CN1C1CCN(Cc2ccccc2)CC1	3.9
Cc1sc2nc(NCc3ccccc3Cl)[nH]c(=O)c2c1C	82.8
O=C(CSc1nc2sc3c(c2c(=O)n1-c1ccc(Cl)cc1)CCCC3)NNC(=O)Nc1cccc(C(F)(F)F)c1	-7.39
Cc1nc(-c2cc3ccccc3oc2=O)ccc1C(=O)/C=C/c1ccc(Cl)c(Cl)c1	101
CCN1CCN(S(=O)(=O)c2oc(-c3ccc(Cl)cc3)nc2C#N)CC1	29
COc1cc2nc(-c3ccc(C)cc3)cc(OCCCNCC3CCCO3)c2cc1OC (stereo not given)	24.1
CCOC(=O)c1c(Nc2ccccc2)nn2c(-c3ccco3)c(C#N)cnc12	79.3
Cn1cc(-c2cc(N)n3nc(-c4cn(C)c5ccc(Cl)cc45)cc3n2)c2cc(Cl)ccc21	88.5
CS(=O)(=O)c1ccc(-c2nc3ccccn3c2/C=N/Nc2nc(-c3ccc(Cl)cc3)cs2)cc1	82.2
C#Cc1nc(C2=C(C)C(O)/C(=N/O)C2)cs1 (stereo not given)	-15.4
Nc1c(C(=O)Nc2ccc(Cl)cc2)sc2nc(-c3cnccn3)cc(-c3cccs3)c12	85.1
